Target: T1, hNav1.7-loopA3-llama Fc fusion (human)
T1 construct: also called hNav1.7-loopA3-llFc; loopA3-llamaFc chimera
T1 chain: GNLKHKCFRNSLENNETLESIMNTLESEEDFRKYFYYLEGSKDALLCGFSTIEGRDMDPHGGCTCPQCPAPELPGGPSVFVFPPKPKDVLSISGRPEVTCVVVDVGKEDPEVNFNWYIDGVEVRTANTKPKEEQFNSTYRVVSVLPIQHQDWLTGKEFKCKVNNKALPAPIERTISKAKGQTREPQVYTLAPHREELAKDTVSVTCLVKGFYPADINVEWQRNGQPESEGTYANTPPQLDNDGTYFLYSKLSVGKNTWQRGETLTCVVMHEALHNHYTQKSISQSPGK
Assay: Biacore SPR, antigen on CM5 chip, mAb in flow
binders and their reported koff
Form entry: enter the amount, then its unit.

Observe how each entry below is paired with its result.
{"columns": ["BINDER", "koff"],
 "data": [
  ["4F7 (antibody, human IgG1, V domains shown) VH: QVQLQESGPGLVKPSQTLSLTCTVSGGSITTSFYAWSWIRQPPGKGLEWMGVIAYDGRTFYSPSLKSRTHISRDTSKNQFSLQLSSVTPEDTAVYYCARGGVVAWSYDYWGQGTQVTVSS VL: SYELTQSPSVSVALRQTAKITCGGNDIGSKSTQWYQQKAGQAPVLVIYADSRRPSGIPERFSGSNSGNTATLTISGAQAEDEADYYCQVWDSRADAAVFGGGTHLTVLG", "2.68e-05 s⁻¹"],
  ["4H6 (antibody, human IgG1, V domains shown) VH: QVQLQESGPGLVKPSQTLSLTCTVSGGSITNYGWSWIRQPPGKGLEWMGVIAYDGSTYYSPSLKSRTSISRDTSKNQFSLQLSSVTPEDTAVYYCASAMVTTSSPWVKTFGAWGQGTQVTVSS VL: QAGLTQPPSVSGSPGKTVTISCAGTSSDVGYGNYVSWYQQLPGMAPKLLLYSVNKRASGIADRFSGSKSGNTASLTISGLQSEDEADYYCGCYDSSLSTPVFGGGTKLTVLG", "4.48e-05 s⁻¹"],
  ["4F6 (antibody, human IgG1, V domains shown) VH: QLQLVESGGGLVQPGGSLRLSCAASGFTFDDYAMSWVRQAPGKGLEWVSAISWNGGSTYYAESMKGRFTISRDNAKNTLYLQMNSLKSKDTAVYYCARRRYGLGSEYDYWGQGTQVTVSS VL: HSAVTQPSAVSVSLGQTARITCQGTNLRSSYVHWYQQMPGQAPVLVIYRDSERPSGIPERFSGSSSGGTATLAISGAQAEDEADYYCQSAHRSESAVFGGGTHLTVLG", "0.00422 s⁻¹"],
  ["4E8 (antibody, human IgG1, V domains shown) VH: EVQLQESGGGLVQPGGSLRLSCAASGFTFDDYAMSWVRQAPGKGLEWVSAISWNGGSTYYAESMKGRFTISRDNAKNTLYLQMNSLKSKDTAVYYCARRRYGLGSEYDYWGQGTQVTVSS VL: NFMLTQPSAVSVSLGQTARITCQGSSFGSSYAHWYQQMPGQAPILVIYRDSERPSGIPDRFSGSNSGGTATLTISGAQAEDEADYYCQSGSSSGNAHAVFGGGTHLTVLG", "0.000422 s⁻¹"]
]}

Query block: Suppose we examine the binder 2D11 (antibody, human IgG1, V domains shown) VH: EVQLQESGPGLVKPSQTLSLTCTVSGGSITNSYYASSWIRQPPGKGLEWMGVIIYDGSTYYSPSLKSRTSISRDTSKNQFSLQLSSVTPEDTAVYYCARGLRVAGSYFTDFGTWGQGTQVTVSS VL: SYELTQSPSVSVALRQAAKITCGGDNIASKHAHWYQQKPGQSPVLVIYKDSNRPSGIPERFSGSNSGNTATLTVSGAQAEDEADYYCQVWDSSANAAVFGGGTHLTVLG ; what koff value has been reported?
Result block: 1.26e-05 s⁻¹

Query block: Suppose we examine the binder 3F11 (antibody, human IgG1, V domains shown) VH: QVQLVESGGGLVQPGGSLRLSCAASGFTFSSYWMYWVRQAPGKGLEWVSAINTGGGSTYYADSVKGRFTISRDNAKNTLYLQMNSLKPEDTALYYCARGPGYSGSYIEGWAYWGQGTQVTVSS VL: DIVMTQSPTSVTASVGEKVTINCKSSQSVVSGSNQKSYLNWYQQRPGQSPRLLIYHASTQESGIPDRFSGSGSTTDFTLTISSVQPEDAAVYYCQQAYNNPYSFGSGTRLEIK ; what koff value has been reported?
Result block: 1.56e-05 s⁻¹

The measurements presented in this section are drawn from patent US20160207996A1.
